Cited source: PubChem BioAssay (NCI)

System: TK-10 renal
PROTOCOL_DETAILS: NCI tumour cell line growth inhibition, 48 h; in the data active = GI50 below about 0.43 µM; inactive = the rest
Tick one outcome: 1 for active, -1 for inactive

Solved entries:
- MOLECULE: "CN(C)c1ccc(Nc2c3ccccc3nc3ccccc23)cc1"
  LABEL: -1
- MOLECULE: "Oc1c(C(Nc2ccccc2Br)c2ccccc2)ccc2cccnc12 (stereo not given)"
  LABEL: -1
- MOLECULE: "Cc1ccc(/C=C(\\C#N)c2cc3ccccc3n2C)cc1"
  LABEL: -1

Request: Name the outcome recorded for NC(=N\N=C/c1ccc(O)cc1)/C(N)=N\N=C/c1ccc(O)cc1 in the assay.
Response: -1

Request: Assay result, entry c1ccc(-c2nn3c(c2-c2ccnc4cc(OCCN5CCOCC5)ccc24)CCC3)nc1 — outcome?
Response: -1

Request: Hello, I am checking results. What call was entered for COc1ccc2c(c1)/C(=C\c1ccncc1)C(=O)N2 ?
Response: -1
